test: Oral bioavailability and disposition of Prurisol; conditions: in vivo; oral; read-out: oral bioavailability (% F)
reportedMetric: bioavailability (%)
# unit: % | format: bare number

QUERY: Which bioavailability is listed for Nc1nc(NC2CC2)c2ncn([C@H]3C=C[C@@H](COC(=O)CO)C3)c2n1 [Prurisol] ?
RESULT: 83
